System: HCT-15 colon
Assay: NCI tumour cell line growth inhibition, 48 h
endpoint: TGI

Entry under test: COc1c(C)c(C/C=C(\C)CCCC(C)CCCC(C)CCCC(C)C)c(OC)c2ccccc12 (stereo unspecified) . Its TGI was > 100 µM

Entry under test: Nc1c(C(=O)c2cccc(C(O)CO)c2)cnn1-c1ccc(F)cc1 (stereo unspecified) . Its TGI was > 25 µM

Entry under test: COc1ccc(Br)c(CN2CCc3ccccc32)c1OS(=O)(=O)c1ccc(C)cc1 . Its TGI was > 100 µM

Entry under test: COc1c(OC)c(OC)c2c(=O)cc(-c3ccc(OC(C)C)cc3)oc2c1OC . Its TGI was > 54.8 µM

Entry under test: O=C1C(N2CCN(CCOCCO)CC2)=C(Cl)C(=O)c2ncccc21 . Its TGI was 37.4 µM

Entry under test: CC(C)=Cc1cc(C)c2ccc(C)c3c2c1C(C)=C(O)C3=O . Its TGI was > 100 µM

Entry under test: C=C(Br)C[N+]12CN3CN(CN(C3)C1)C2 . Its TGI was > 100 µM

Entry under test: COc1ccc(OC)c2c(C)ccnc12 . Its TGI was > 100 µM

Entry under test: CCOc1ccc2nc3nc(=O)[nH]c(C)c3c(NC(C)(CO)CO)c2c1 . Its TGI was > 100 µM

Entry under test: O=C1CCCCC/C1=C\c1cccc(F)c1 . Its TGI was > 100 µM

Entry under test: NC1CCCCC1NCCNC1CCCCC1N (stereo unspecified) . Its TGI was > 100 µM

Entry under test: Cc1cc(C)nc(NS(=O)(=O)c2ccc(NNc3c4ccccc4nc4c(C(=O)Nc5ccc(S(=O)(=O)Nc6cc(C)on6)cc5)cccc34)cc2)n1 . Its TGI was > 100 µM

Entry under test: CS(=O)(=O)c1ccc(COP(N)(=O)N(CCCl)CCCl)cc1 (stereo unspecified) . Its TGI was > 100 µM

Entry under test: Cc1c(OCc2cccc3ccccc23)ccc2c(=O)cc(SCCN3CCOCC3)oc12 . Its TGI was > 100 µM

Entry under test: COC(=O)c1onc(C2OC(C)(C)OC2C(O)COC(c2ccccc2)(c2ccccc2)c2ccccc2)c1C(=O)OC (stereo unspecified) . Its TGI was > 100 µM

Entry under test: Oc1ccc2ccccc2c1OCc1nnc(CCCCCCCCc2nnc(COc3c(O)ccc4ccccc34)n2Nc2ccccc2)n1Nc1ccccc1 . Its TGI was 77.7 µM

Entry under test: CCCC(O)c1cn(-c2cccc(S(=O)(=O)O)c2)nn1 (stereo unspecified) . Its TGI was > 100 µM

Entry under test: CN(C)c1ccc(/C=c2/c3ccccc3n3c2cc(/C=C/c2ccccc2)[n+]3C)cc1 . Its TGI was 3.49 µM

Entry under test: O=[N+]([O-])c1cc(/C=N\NS(=O)(=O)c2ccc(Cl)cc2)c(O)c([N+](=O)[O-])c1 . Its TGI was 53.1 µM

Entry under test: O=Nc1c(-c2c(O)[nH]c3ccc(I)cc23)[nH]c2ccccc12 . Its TGI was > 39.9 µM

Entry under test: N/N=C(/N)SCCCCCCCCCCS/C(N)=N/N . Its TGI was 27.5 µM
